Where these numbers come from: ChEMBL document CHEMBL1148331

- System: SK-OV-3
- testProtocol: Growth inhibitory potency against NTR-Transfected (nitroreductase) human ovarian cell line known as SKOV3-NTR neo cell line
- Type: functional, cell-based
measurementName: pIC50
Scale explanation: pIC50 corresponds to minus log10 of a concentration expressed in moles per litre.

INPUT: For the compound NC(=O)c1c([N+](=O)[O-])ccc(N2CC2)c1[N+](=O)[O-] , give its reported pIC50.
OUTPUT: 4.18

INPUT: For the compound NC(=O)c1cc(N2CC2)c([N+](=O)[O-])cc1[N+](=O)[O-] [TRETAZICAR] , give its reported pIC50.
OUTPUT: 6.19

INPUT: For the compound CS(=O)(=O)c1cc([N+](=O)[O-])c(C(N)=O)cc1N1CC1 , give its reported pIC50.
OUTPUT: 4.66
